- Procedure Summary: in vitro
- Study Conditions: human, hela cells, % viability
Readout Name: viability at 28.5 h, 10 µM (%)
Give bare numbers, in %.

Known results for molecules:
[[record]]
molecule = "COC(=O)C1=C(C)N=C2SCCC(=O)N2C1c1ccc(C(C)C)cc1 (stereo not drawn) [CBK073523]"
observed_value = 109

[[record]]
molecule = "CCOC(=O)c1cnc(SCc2nc(N)nc(Nc3ccc(F)cc3)n2)nc1N [CBK098477]"
observed_value = 82.3


# map each molecule to its viability at 28.5 h, 10 µM
1. O=C(c1ccccc1)c1nnsc1-c1ccccc1 [CBK008193]
2. CCOc1ccc(-c2noc(CCC(=O)NC)n2)cc1OC [CBK269226]
3. Clc1ccc2nc(SCc3csc(Nc4ccccc4)n3)oc2c1 [CBK268269]

**Result**
[97, 86.4, 100]

# map each molecule to its viability at 28.5 h, 10 µM
1. O=C(CN1C(=O)COc2ccccc21)NCc1ccco1 [CBK269682]
2. CCn1cc(CN2CCN(C(=O)c3csc(C(C)C)c3)CC2)cn1 [CBK282044]
3. Cc1c(Cl)cccc1S(=O)(=O)Nc1nc(C(C)Sc2nccn2C)ns1 (stereo not drawn) [CBK200052]
4. CC(C)c1ccc(OCCN2CCNCC2)cc1 [CBK266024C]
5. CC(C)(C)c1cc(C(=O)O)[nH]n1 [CBK260874]
6. COc1cc(C(=O)Nc2ccc(N3CCN(C)CC3)cc2)ccc1OCc1ccc(Cl)cc1 [CBK266116]
7. COc1ccc(-c2nn(CCC(=O)O)cc2/C=C2\SC(=S)NC2=O)cc1OC [CBK265318]
8. O=C(CN1C(=O)[C@@H]2CCCN2C(=O)c2ccccc21)NCc1ccccc1 [CBK286318]

**Result**
[94.8, 88.1, 88.5, 96, 103, 99, 108, 98.6]

# map each molecule to its viability at 28.5 h, 10 µM
1. CCCCn1nc(C)c(-c2cc(C(=O)O)[nH]n2)c1C [CBK287047]
2. Cc1cc(C)n(C(C)C(=O)N2CCC(Nc3cccnc3)CC2)n1 (stereo not drawn) [CBK305917]

**Result**
1. 95
2. 94.2

* * *

- Procedure Summary: in vitro
- Study Conditions: human, hela cells, % viability
Would you kindly list viability at 28.5 h, 10 µM for each of these molecules?
One number for each entry, in %.

[[record]]
molecule = "Cn1ccnc1C(NC(=O)N1CCOCC1)c1ccc(F)c(F)c1 (stereo not shown)"
unit_tag = "%"
observed_value = 87.4

[[record]]
molecule = "CCC(=O)NCc1ccc(-c2cc(CN(C)C)n(C)n2)cc1"
unit_tag = "%"
observed_value = 103

[[record]]
molecule = "O=C(NCc1c(OC(=O)c2cccc([N+](=O)[O-])c2)ccc2ccccc12)c1ccccc1"
unit_tag = "%"
observed_value = 81.1


# map each molecule to its viability at 28.5 h, 10 µM
1. O=[N+]([O-])c1ccc(CN2CCC(Oc3cncc(OCc4ccc(Cl)c(Cl)c4)n3)C2)cc1 (stereo not shown)
2. COc1cccc(NC(=O)CC(CN2CCN(CCC#N)CC2)C(=O)O)c1 (stereo not shown)
3. CC(NC(=O)CCc1ccncc1)C1CC2CCC1C2 (stereo not shown)
4. O=C1N2CCSC2=NC1(Nc1nccs1)C(F)(F)F (stereo not shown)
5. c1ccc(-c2cc(CC3(NCc4cc5ccccc5o4)COC3)no2)nc1

**Result**
1: 97.1; 2: 86.1; 3: 99.8; 4: 84.1; 5: 93.4

# map each molecule to its viability at 28.5 h, 10 µM
1. O=C(Nc1ccc(-n2cc(Cl)cn2)cc1)c1ccncc1
2. C[C@@H]1C(=O)O[C@H]2[C@H]1CC[C@@]1(C)Cc3sc(NC(=O)CCC(=O)O)nc3[C@@H](C)[C@H]21
3. CCc1nccn1CCC(=O)NC1CCN(c2ccc(F)cc2)CC1
4. Nc1nc2c(ccn2[C@H]2C[C@@H](O)[C@@H](CO)O2)c(=O)[nH]1

**Result**
1. 88.2
2. 98.7
3. 90.1
4. 100

# map each molecule to its viability at 28.5 h, 10 µM
1. CCCCOc1ccc(NC(=O)NC(=O)C2CCN(CCc3ccc(Br)cc3)CC2)cc1
2. COCCCn1c(=O)[nH]c2ncc(-c3ccc(O)cc3)nc21
3. c1ccc([C@@H]2CN(CC3CCOC3)C[C@H]2c2cc[nH]n2)cc1 (stereo partly shown)
4. Oc1ccccc1C(=S)N1CCCCC1
5. Cc1ccc(NC(=O)CC(=O)NCCN2CCOCC2)cc1
6. CCC#CC(=O)Nc1ccccc1N1CCCNCC1 [CBK024291T]
7. COc1ccc(C)cc1NC(=O)NC1CCN(Cc2ccccc2)CC1

**Result**
1. 91.5
2. 93.6
3. 110
4. 92.8
5. 92.8
6. 98.5
7. 99.2

# map each molecule to its viability at 28.5 h, 10 µM
1. O=C(CN1CCC(NC(=O)c2ccccc2)CC1)Nc1ccccc1
2. O=C(N[C@H]1CCCC[C@H]1N1CCCC1)N[C@H]1CCCC[C@H]1N1CCCC1
3. Cc1ccc(C(=O)NCCNC(=O)CN2CCCC2)cc1

**Result**
[96.7, 115, 92.5]

* * *

- Procedure Summary: in vitro
- Study Conditions: human, hela cells, % viability
Readout Name: viability at 28.5 h, 10 µM (%)
Give bare numbers, in %.

Known results for compounds:
[[record]]
compound = "CC(C)CCCC(=O)n1c(=O)n(CCc2c[nH]c3ccccc23)c2ccccc21 [CBK106513]"
observed_value = 89.2

[[record]]
compound = "CN(C)CCCNC=C1C(=O)CC(C)(C)CC1=O [CBK262043]"
observed_value = 92.2

[[record]]
compound = "CCn1ccc(NC(=O)CC2CCN(Cc3cccc(C(F)(F)F)c3)CC2)n1 [CBK285997]"
observed_value = 101

[[record]]
compound = "O=C(NCCn1nc(-c2cccs2)ccc1=O)c1ccccc1F [CBK283835]"
observed_value = 86.1

[[record]]
compound = "COC(=O)c1cc(Br)c(NC(=O)c2cccs2)cc1OC [CBK066842]"
observed_value = 86.6


# map each compound to its viability at 28.5 h, 10 µM
1. CN1CCC(N2CCN(C(=O)NCCOc3ccccc3)CC2)CC1 [CBK156098]
2. Cn1c2c(c(=O)n(C)c1=O)CN(CCN1CCNCC1)CN2 [CBK265218]
3. CC(C)c1ccc(C(C)NC(=O)c2ccc(=O)n(CC(=O)NC3CCCC3)c2)cc1 (stereo not drawn) [CBK286038]
4. COc1ccc(C(=O)Nc2ccccc2-c2nc3ccccc3s2)cc1OC [CBK266376]
5. Cc1cc(NC(=O)C(C)N2CCN(S(=O)(=O)c3ccc(C4CCCCC4)cc3)CC2)on1 (stereo not drawn) [CBK295639]
6. CN(C)CCN1CCN(c2nc(-c3cccc4ccccc34)cnc2N)CC1 [CBK063479]
7. O=C(NCc1nc2ccccc2[nH]1)c1cc(Br)cnc1NCCOc1ccccc1 [CBK076220]

**Result**
86.9
104
97.4
93.9
101
94.7
104

* * *

- Procedure Summary: in vitro
- Study Conditions: human, hela cells, % viability
Would you kindly list viability at 28.5 h, 10 µM for each of these compounds?
Give bare numbers, in %.

Known results for compounds:
[[record]]
compound = "Cc1nn(C)c(Cl)c1S(=O)(=O)Nc1ccc2nsnc2c1 [CBK062222]"
observed_value = 69.6

[[record]]
compound = "O=C(CN1CCN(Cc2ccccc2)CC1)Nc1cccc(Cl)c1 [CBK267850]"
observed_value = 113

[[record]]
compound = "O=C(Cn1c(=O)n(Cc2cccs2)c2ncccc21)NC1CC1 [CBK283898]"
observed_value = 90.6


# map each compound to its viability at 28.5 h, 10 µM
1. CC(C)CNC(=S)N[C@H]1CO[C@H]2[C@@H]1OC[C@@H]2Nc1nccc(C(C)(C)C)n1 [CBK289523]
2. O=C(O)Cn1cc(C(C(=O)O)N2CCN(c3ccccc3)CC2)c2ccccc21 (stereo not drawn) [CBK286625]
3. O=C(CCc1ccco1)N1CCCC1c1nc2ccccc2[nH]1 (stereo not drawn) [CBK283767]
4. COc1ccc(C(=O)Nc2c(C)nn(C)c2N2CCNCC2)cc1 [CBK050306T]
5. CCCCOc1ccc2c(C(F)(F)F)cc(=O)oc2c1 [CBK097821]
6. CCC(=O)Nc1nnc(-c2ccc3c(c2)OCCO3)o1 [CBK287404]

**Result**
1: 90.9; 2: 78.1; 3: 104; 4: 94.5; 5: 104; 6: 92.6

# map each compound to its viability at 28.5 h, 10 µM
1. CCOC(=O)Cn1[nH]c(COC(C)(C)C)c(Cc2c(Cl)cccc2Cl)c1=O [CBK103551]
2. CCCCN1CCC(CNc2cc(C(F)(F)F)c3scc(C(=O)NC4CCC4)c3n2)CC1 [CBK034026C]
3. Clc1cncc(N2CCCC2)n1 [CBK083595]

**Result**
[114, 103, 118]
